Entries annotated with measured MIC
Tested on: Candida albicans
TEST_SUMMARY: Antifungal activity against Candida albicans ATCC 44859 after 48 hrs
Type: functional
ASSAY_CONDITIONS: ATCC 44859, 48 h

>>> df
                                  structure  endpoint  data_value
0  C[C@]12CC[C@@H]3c4ccc(OCCCCCCC[n+]5ccccc5)cc4CC[C@H]3[C@@H]1CCC2=O.[Br-]       MIC      3.9 µM

Query: Observed MIC on Candida albicans for C[C@]12CC[C@@H]3c4ccc(OCCCCCCC[n+]5ccc(SCc6ccc(Cl)cc6)cc5)cc4CC[C@H]3[C@@H]1CCC2=O.[Br-] , please.
Result: 7.8 µM

Query: Observed MIC on Candida albicans for Clc1ccc(-n2nnnc2SCc2ccccc2)cc1 , please.
Result: > 250 µM

Query: Observed MIC on Candida albicans for C[C@]12CC[C@@H]3c4ccc(OCCCCCCCSc5nnnn5-c5ccc(Cl)cc5)cc4CC[C@H]3[C@@H]1CCC2=O , please.
Result: > 250 µM

Query: Observed MIC on Candida albicans for C[C@]12CC[C@@H]3c4ccc(OCCCCCCCBr)cc4CC[C@H]3[C@@H]1CCC2=O , please.
Result: > 125 µM

Query: Observed MIC on Candida albicans for C[C@]12CC[C@@H]3c4ccc(OCCCCCCCSc5nnnn5-c5ccccc5)cc4CC[C@H]3[C@@H]1CCC2=O , please.
Result: > 250 µM

Query: Observed MIC on Candida albicans for Cc1ccc(CSc2cc[n+](CCCCCCCOc3ccc4c(c3)CC[C@@H]3[C@@H]4CC[C@]4(C)C(=O)CC[C@@H]34)cc2)cc1.[Br-] , please.
Result: 3.9 µM

This collection of values is drawn from ChEMBL document CHEMBL1143019.
